Quick list: Calcein leakage rate (%) per entry.
- Assay type: physicochemical
- Assay conditions: pH 6.5; calcein-encapsulated liposome, 37° C., 10 minutes

| Ordered residues | Calcein leakage rate (%) |
| --- | --- |
| HHGGLLLLHHHAAAAALLLAAAAA [compound 1] | 30% |
| HGHGGGGGGGGGAHALLAHAALAH [compound 2] | 30% |
| EGEGLALLAHALLAHAALAHAALA [Peptide compound 3] | 65% |
| HGHGLALLAHALLAHAALAHAALA [Peptide compound 1] | 100% |
| GHHGLALLHALHLAAAALHAAALA [Peptide compound 2] | 90% |

Values compiled from patent US9526791B2.
